Origin of values: ChEMBL document CHEMBL4613282

Provide the recorded Ki for the entries that follow.
Biological target: Kappa-type opioid receptor (Cavia porcellus, UniProt P41144)
Sequence (P41144 whole entry): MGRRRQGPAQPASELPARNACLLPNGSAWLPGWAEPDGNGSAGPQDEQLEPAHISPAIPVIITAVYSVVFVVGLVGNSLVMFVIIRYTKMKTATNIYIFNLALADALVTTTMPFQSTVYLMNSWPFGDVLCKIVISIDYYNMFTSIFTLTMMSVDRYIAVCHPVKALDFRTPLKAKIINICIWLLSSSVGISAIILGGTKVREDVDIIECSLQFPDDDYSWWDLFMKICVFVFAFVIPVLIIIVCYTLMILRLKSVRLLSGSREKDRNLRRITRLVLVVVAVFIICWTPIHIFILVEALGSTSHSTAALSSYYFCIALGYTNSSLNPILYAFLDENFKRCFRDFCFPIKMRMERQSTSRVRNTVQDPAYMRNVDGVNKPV

Q. Param readout = Ki; param system = Kappa-type opioid receptor (Cavia porcellus, UniProt P41144); param query = Cc1ccc(NC(=O)CCN2CC[C@@]3(C)c4cc(O)ccc4C[C@@H]2[C@@H]3C)c(C)c1 ; response: value
A. 340 nM

Q. Param readout = Ki; param system = Kappa-type opioid receptor (Cavia porcellus, UniProt P41144); param query = Cc1ccc(C)c(NCCN2CC[C@@]3(C)c4cc(O)ccc4C[C@@H]2[C@@H]3C)c1 ; response: value
A. > 2000 nM

Q. Param readout = Ki; param system = Kappa-type opioid receptor (Cavia porcellus, UniProt P41144); param query = Cc1cccc(C)c1NC(=O)CCN1CC[C@@]2(C)c3cc(O)ccc3C[C@@H]1[C@@H]2C ; response: value
A. 252 nM

Q. Param readout = Ki; param system = Kappa-type opioid receptor (Cavia porcellus, UniProt P41144); param query = Cc1cccc(C)c1N(Cc1ccccc1)C(=O)CCN1CC[C@@]2(C)c3cc(O)ccc3C[C@@H]1[C@@H]2C ; response: value
A. > 3000 nM

Q. Param readout = Ki; param system = Kappa-type opioid receptor (Cavia porcellus, UniProt P41144); param query = Cc1ccc(NCCN2CC[C@@]3(C)c4cc(O)ccc4C[C@@H]2[C@@H]3C)c(C)c1 ; response: value
A. > 1000 nM

Q. Param readout = Ki; param system = Kappa-type opioid receptor (Cavia porcellus, UniProt P41144); param query = CCc1cccc(C)c1N(Cc1ccccc1)C(=O)CCN1CC[C@@]2(C)c3cc(O)ccc3C[C@@H]1[C@@H]2C ; response: value
A. 151 nM

Q. Param readout = Ki; param system = Kappa-type opioid receptor (Cavia porcellus, UniProt P41144); param query = CCc1cccc(C)c1NC(=O)CCN1CC[C@@]2(C)c3cc(O)ccc3C[C@@H]1[C@@H]2C ; response: value
A. 320 nM

Q. Param readout = Ki; param system = Kappa-type opioid receptor (Cavia porcellus, UniProt P41144); param query = C[C@H]1[C@H]2Cc3ccc(O)cc3[C@]1(C)CCN2CCN(Cc1ccccc1)c1ccccc1 ; response: value
A. > 3000 nM

Q. Param readout = Ki; param system = Kappa-type opioid receptor (Cavia porcellus, UniProt P41144); param query = Cc1ccc(C)c(NC(=O)CCN2CC[C@@]3(C)c4cc(O)ccc4C[C@@H]2[C@@H]3C)c1 ; response: value
A. 480 nM

Q. Param readout = Ki; param system = Kappa-type opioid receptor (Cavia porcellus, UniProt P41144); param query = Cc1cc(C)c(NC(=O)CCN2CC[C@@]3(C)c4cc(O)ccc4C[C@@H]2[C@@H]3C)c(C)c1 ; response: value
A. 313 nM

Q. Param readout = Ki; param system = Kappa-type opioid receptor (Cavia porcellus, UniProt P41144); param query = C[C@H]1[C@H]2Cc3ccc(O)cc3[C@]1(C)CCN2CCC(=O)N(Cc1ccccc1)c1ccccc1 ; response: value
A. > 5000 nM

Q. Param readout = Ki; param system = Kappa-type opioid receptor (Cavia porcellus, UniProt P41144); param query = Cc1cc(C)c(N(Cc2ccccc2)C(=O)CCN2CC[C@@]3(C)c4cc(O)ccc4C[C@@H]2[C@@H]3C)c(C)c1 ; response: value
A. 444 nM

Q. Param readout = Ki; param system = Kappa-type opioid receptor (Cavia porcellus, UniProt P41144); param query = Cc1ccc(N(Cc2ccccc2)C(=O)CCN2CC[C@@]3(C)c4cc(O)ccc4C[C@@H]2[C@@H]3C)c(C)c1 ; response: value
A. > 2000 nM

* * *

Target: Delta-type opioid receptor (Rattus norvegicus, UniProt P33533)
Sequence (P33533 whole entry): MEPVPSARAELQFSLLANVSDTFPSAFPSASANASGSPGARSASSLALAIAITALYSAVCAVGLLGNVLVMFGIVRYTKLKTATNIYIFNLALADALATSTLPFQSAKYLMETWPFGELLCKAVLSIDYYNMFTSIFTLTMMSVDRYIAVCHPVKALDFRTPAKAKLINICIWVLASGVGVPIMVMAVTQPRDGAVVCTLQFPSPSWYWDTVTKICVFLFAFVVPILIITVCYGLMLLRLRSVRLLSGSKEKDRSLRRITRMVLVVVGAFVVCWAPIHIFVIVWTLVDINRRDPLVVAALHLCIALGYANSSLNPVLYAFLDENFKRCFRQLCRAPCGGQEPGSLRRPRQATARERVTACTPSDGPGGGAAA
Assay: Displacement of [3H]DPDPE from DOR in rat brain membranes incubated for 45 mins by liquid scintillation counting
metric: pKi
Notebook: values listed as pKi are -log10 of the concentration (mol/L).

Q. Return reported pKi; argument: CCc1cccc(C)c1NC(=O)CCN1CC[C@@]2(C)c3cc(O)ccc3C[C@@H]1[C@@H]2C
A. 6.70

Q. Return reported pKi; argument: Cc1ccc(C)c(NC(=O)CCN2CC[C@@]3(C)c4cc(O)ccc4C[C@@H]2[C@@H]3C)c1
A. 6.32

Q. Return reported pKi; argument: Cc1ccc(NC(=O)CCN2CC[C@@]3(C)c4cc(O)ccc4C[C@@H]2[C@@H]3C)c(C)c1
A. 6.32

* * *

Target: Delta-type opioid receptor (Rattus norvegicus, UniProt P33533)
Assay: Displacement of [3H]DPDPE from DOR in rat brain membranes incubated for 45 mins by liquid scintillation counting
pKi: −log10 of the molar value.
metric: pKi

Q. Return reported pKi; argument: Cc1ccc(NCCN2CC[C@@]3(C)c4cc(O)ccc4C[C@@H]2[C@@H]3C)c(C)c1
A. < 5.30

Q. Return reported pKi; argument: Cc1ccc(N(Cc2ccccc2)C(=O)CCN2CC[C@@]3(C)c4cc(O)ccc4C[C@@H]2[C@@H]3C)c(C)c1
A. < 5.30

Q. Return reported pKi; argument: Cc1cccc(C)c1N(Cc1ccccc1)C(=O)CCN1CC[C@@]2(C)c3cc(O)ccc3C[C@@H]1[C@@H]2C
A. < 5.30

Q. Return reported pKi; argument: Oc1ccc2c3c1O[C@H]1c4[nH]c5ccccc5c4C[C@@]4(O)[C@@H](C2)N(CC2CC2)CC[C@]314
A. 9.08

Q. Return reported pKi; argument: Cc1cc(C)c(NC(=O)CCN2CC[C@@]3(C)c4cc(O)ccc4C[C@@H]2[C@@H]3C)c(C)c1
A. < 5.70

Q. Return reported pKi; argument: Cc1cccc(C)c1NC(=O)CCN1CC[C@@]2(C)c3cc(O)ccc3C[C@@H]1[C@@H]2C
A. 6.56

Q. Return reported pKi; argument: C[C@H]1[C@H]2Cc3ccc(O)cc3[C@]1(C)CCN2CCC(=O)N(Cc1ccccc1)c1ccccc1
A. < 5.30

Q. Return reported pKi; argument: CCc1cccc(C)c1N(Cc1ccccc1)C(=O)CCN1CC[C@@]2(C)c3cc(O)ccc3C[C@@H]1[C@@H]2C
A. < 5.30

* * *

# collection of pKi values tested on Mu-type opioid receptor (Rattus norvegicus, UniProt P33535)
# Sequence (P33535 whole entry): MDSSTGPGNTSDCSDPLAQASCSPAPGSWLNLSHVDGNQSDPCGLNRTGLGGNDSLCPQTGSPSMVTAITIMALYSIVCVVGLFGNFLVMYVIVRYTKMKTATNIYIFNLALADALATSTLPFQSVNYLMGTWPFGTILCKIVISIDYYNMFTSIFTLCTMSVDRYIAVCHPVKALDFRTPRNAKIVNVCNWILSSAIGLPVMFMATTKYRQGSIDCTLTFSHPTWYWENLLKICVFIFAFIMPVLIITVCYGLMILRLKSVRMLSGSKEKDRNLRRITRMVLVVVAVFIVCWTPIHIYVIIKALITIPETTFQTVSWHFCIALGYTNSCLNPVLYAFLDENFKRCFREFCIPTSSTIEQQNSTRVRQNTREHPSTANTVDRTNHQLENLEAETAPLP
Notebook: values listed as pKi are -log10 of the concentration (mol/L).

Q. Param readout = pKi; param system = Mu-type opioid receptor (Rattus norvegicus, UniProt P33535); param query = Cc1ccc(N(Cc2ccccc2)C(=O)CCN2CC[C@@]3(C)c4cc(O)ccc4C[C@@H]2[C@@H]3C)c(C)c1 ; response: value
A. 6.78

Q. Param readout = pKi; param system = Mu-type opioid receptor (Rattus norvegicus, UniProt P33535); param query = C[C@H]1[C@H]2Cc3ccc(O)cc3[C@]1(C)CCN2CCC(=O)N(Cc1ccccc1)c1ccccc1 ; response: value
A. 6.22

Q. Param readout = pKi; param system = Mu-type opioid receptor (Rattus norvegicus, UniProt P33535); param query = Cc1cc(C)c(NC(=O)CCN2CC[C@@]3(C)c4cc(O)ccc4C[C@@H]2[C@@H]3C)c(C)c1 ; response: value
A. 7.36

Q. Param readout = pKi; param system = Mu-type opioid receptor (Rattus norvegicus, UniProt P33535); param query = Cc1ccc(C)c(NCCN2CC[C@@]3(C)c4cc(O)ccc4C[C@@H]2[C@@H]3C)c1 ; response: value
A. 6.74

Q. Param readout = pKi; param system = Mu-type opioid receptor (Rattus norvegicus, UniProt P33535); param query = CCc1cccc(C)c1N(Cc1ccccc1)C(=O)CCN1CC[C@@]2(C)c3cc(O)ccc3C[C@@H]1[C@@H]2C ; response: value
A. 5.81

Q. Param readout = pKi; param system = Mu-type opioid receptor (Rattus norvegicus, UniProt P33535); param query = Cc1cccc(C)c1N(Cc1ccccc1)C(=O)CCN1CC[C@@]2(C)c3cc(O)ccc3C[C@@H]1[C@@H]2C ; response: value
A. 6.40

Q. Param readout = pKi; param system = Mu-type opioid receptor (Rattus norvegicus, UniProt P33535); param query = Cc1cc(C)c(N(Cc2ccccc2)C(=O)CCN2CC[C@@]3(C)c4cc(O)ccc4C[C@@H]2[C@@H]3C)c(C)c1 ; response: value
A. 6.30

Q. Param readout = pKi; param system = Mu-type opioid receptor (Rattus norvegicus, UniProt P33535); param query = Cc1ccc(NCCN2CC[C@@]3(C)c4cc(O)ccc4C[C@@H]2[C@@H]3C)c(C)c1 ; response: value
A. 6.89

Q. Param readout = pKi; param system = Mu-type opioid receptor (Rattus norvegicus, UniProt P33535); param query = C[C@H]1[C@H]2Cc3ccc(O)cc3[C@]1(C)CCN2CCN(Cc1ccccc1)c1ccccc1 ; response: value
A. 6.61

Q. Param readout = pKi; param system = Mu-type opioid receptor (Rattus norvegicus, UniProt P33535); param query = Cc1ccc(C)c(NC(=O)CCN2CC[C@@]3(C)c4cc(O)ccc4C[C@@H]2[C@@H]3C)c1 ; response: value
A. 8.10

Q. Param readout = pKi; param system = Mu-type opioid receptor (Rattus norvegicus, UniProt P33535); param query = CCc1cccc(C)c1NC(=O)CCN1CC[C@@]2(C)c3cc(O)ccc3C[C@@H]1[C@@H]2C ; response: value
A. 7.83

Q. Param readout = pKi; param system = Mu-type opioid receptor (Rattus norvegicus, UniProt P33535); param query = Cc1ccc(NC(=O)CCN2CC[C@@]3(C)c4cc(O)ccc4C[C@@H]2[C@@H]3C)c(C)c1 ; response: value
A. 7.68

Q. Param readout = pKi; param system = Mu-type opioid receptor (Rattus norvegicus, UniProt P33535); param query = Cc1cccc(C)c1NC(=O)CCN1CC[C@@]2(C)c3cc(O)ccc3C[C@@H]1[C@@H]2C ; response: value
A. 8.13
